# Test system: mushroom tyrosinase
# PROTOCOL DESCRIPTION: Mushroom tyrosinase assay
# Format: biochemical
# CONDITION SET: 100 micro-M; slope of 475-nm absorbency vs ethanol control, L-DOPA substrate
RECORDED METRIC: Tyrosinase activity (% of ethanol control) (%)

Exercise: Entry under review: CCc1ccc(O)cc1O [4-Ethyl Resorcinol, reference compound] . Reported Tyrosinase activity (% of ethanol control)?
Key: 20.7

A = CC(CC(=O)O)c1ccc(O)cc1O (centres unmarked) [II, 3-(2,4-dihydroxyphenyl)-butyric acid]
B = COC(=O)CC(C)c1ccc(O)cc1O (centres unmarked) [D1, Methyl 3-(2,4-dihydroxyphenyl)-butyrate]
C = O=c1ccc2ccc(O)cc2o1 [7-Hydroxy Coumarin, reference compound]
D = CC1CC(=O)Oc2cc(O)ccc21 (centres unmarked) [B1, 7-hydroxy-3,4-dihydro-4-methylcoumarin]
Exercise: Put these in order: smallest Tyrosinase activity (% of ethanol control) first, largest last. Record the ranking as a list of labels in the requested order.
Key: A, B, D, C
(A: 20.6%, B: 41.0%, D: 75.3%, C: 117%)
